# METHOD NOTES: folding enthalpy; higher = less favourable; fluorescence melt of hairpins on a sequencing array, two-state fit
# EXPERIMENTAL PARAMETERS: sodium 0.088 M
Listing of entries alongside the reported folding enthalpy.
OUTCOME MEASURE: folding enthalpy (kcal/mol)

> print(dat)
                                 residues  units.label  measured.number
 1      GATCACTTCAGTGATC ((((((....))))))     kcal/mol            -46.6
 2  GCCACCGAAAGGTATGGC ((((((....)))..)))     kcal/mol            -36.9
 3          AGACTGAAAAGTCT (((((....)))))     kcal/mol            -16.9
 4      GATCATGTACATGATC ((((((....))))))     kcal/mol            -40.7
 5      GATCTCATGAGAGATC ((((((....))))))     kcal/mol              -32
 6  GACCTCACGAAAGTGGTC (((..(((....))))))     kcal/mol            -20.7
 7  GCAATACGAAAGTAGTGC (((.(((....))).)))     kcal/mol            -43.8
 8              GCGGAGATCCGC ((((....))))     kcal/mol            -26.2
 9  GCCAAGCGAAAGCTTAGC ((.((((....)))).))     kcal/mol            -17.6
10    GCATAGCGAAAGCTTGC (((.(((....))))))     kcal/mol            -22.5
11  GTCTCTGGAAACAGAGAC (((((((....)))))))     kcal/mol            -42.5
12              GCGATGGTTCGC ((((....))))     kcal/mol            -24.5
13  GAGTGGGGAAACCTGCTC (((..((....))..)))     kcal/mol            -26.6
14  GGCGCGGCGAAAGCCGCC (((..(((....))))))     kcal/mol            -5.51
15      GATCCGAGACCGGATC ((((((....))))))     kcal/mol            -36.6
16      GATCAATGAGTTGATC ((((((....))))))     kcal/mol            -37.1
17  GCCCCCGAAAGGGGTGGC ((((((....)))..)))     kcal/mol            -12.8
18  GCGAATGGAAACATTCAC (.(((((....))))).)     kcal/mol            -18.6
19          GCATCGAAAGATGC (((((....)))))     kcal/mol            -31.8
20  GCAAAAACGAAAGTTTGC (((..(((....))))))     kcal/mol              -26
21  GCTGAGCGAAAGCTTTGC ((..(((....)))..))     kcal/mol            -19.1
22  GATGTTGCGAAAGCAATC (((..(((....))))))     kcal/mol            -10.9
23  GAACCCGAAAGGGGATTC ((((((....)))..)))     kcal/mol            -16.6
24          AACCAGAAATGGTT (((((....)))))     kcal/mol            -14.8

* * *

# METHOD NOTES: folding enthalpy; higher = less favourable; fluorescence melt of hairpins on a sequencing array, two-state fit
# EXPERIMENTAL PARAMETERS: sodium 0.088 M
// 0.0 strictly below -30 kcal/mol in folding enthalpy; 1.0 otherwise

> print(dat)
                                 residues  discrete.label
 1  GAGGACGAAAGTCTTCTC ((((((....)))..)))             1.0
 2  GGGGACGAAAGTCTGCCC ((((((....)))..)))             1.0
 3      GATCGTGAGTACGATC ((((((....))))))             0.0
 4    GTGCACGAAAGTGACAC ((((((....))).)))             1.0
 5  GCGTAAGCGAAAGCTCGC (((..(((....))))))             1.0
 6  GCAGTCTCGAAAGAGTGC (((..(((....))))))             1.0
 7  GTAACTCGAAAGAGATAC (((.(((....))).)))             1.0
 8      GATCTGAGGGCAGATC ((((((....))))))             0.0
 9  GGCTCGGGAAACCGGGCC (((.(((....))).)))             0.0
10          CCATTGAAAAATGG (((((....)))))             1.0
11  GCCCAAACGAAAGTTGGC (((..(((....))))))             1.0
12  GGTTTACGAAAGTACACC (((.(((....))).)))             1.0
13  GCTTCAGGAAACTGGAGC (((.(((....))).)))             0.0
14          ACTGTGAAAACAGT (((((....)))))             1.0
15  GCTAGGCGAAAGCTGAGC (((..((....))..)))             1.0

* * *

# METHOD NOTES: melting temperature; fluorescence melt of hairpins on a sequencing array, two-state fit, raised by 9.35 °C to match UV melts
# EXPERIMENTAL PARAMETERS: sodium 0.088 M
OUTCOME MEASURE: Tm (°C)

> print(dat)
                                residues  measured.number
1  GCAGCGCGAAAGCGCCGC ((.((((....)))).))             67.4
2      GATCCCCGGAGGGATC ((((((....))))))             59.5
3  GTCTCCGAAAGGATCGAC ((((((....)))..)))             31.4
4    GTCTACGAAAGTATGAC ((((((....))).)))             42.3
5    GTGGCCCGAAAGGGCAC (((.(((....))))))               62
6        GATCTCAGAGAGATC ((((((...))))))             55.4
7  GTCCCACCGAAAGGTGAC (((..(((....))))))               27
8  GCGATCGGAAACGACCGC (((.(((....))).)))             55.5
9  GGTTTACGAAAGTACACC (((.(((....))).)))             45.2

* * *

Listing of entries alongside the reported folding enthalpy.
# METHOD NOTES: folding enthalpy; higher = less favourable; fluorescence melt of hairpins on a sequencing array, two-state fit
# EXPERIMENTAL PARAMETERS: sodium 0.088 M
OUTCOME MEASURE: folding enthalpy (kcal/mol)

> print(dat)
                                 residues  measured.number
 1      GGTAATGAAAATTACC ((((((....))))))            -32.4
 2  CGCGCGGAAACGCCTGCG ((((((....)))..)))            -17.2
 3  GTTTTCGAAAGAAACAAC ((((((....)))..)))            -11.7
 4  GCGTCGCGAAAGCCAAGC ((.(.((....)).).))            -20.1
 5  GTATCCGAAAGGATATAC ((((((....)))..)))            -13.8
 6      GATCTGCTGTCAGATC ((((((....))))))            -32.2
 7  GGGAGAGGAAACTTTCCC ((((.((....)).))))            -27.3
 8  GATTTCCGAAAGGATATC (((.(((....))).)))            -24.6
 9  GATAATGGAAACATTGTC ((.((((....)))).))            -31.2
10  GGACTCGAAAGAGCCTCC ((((((....)))..)))            -16.9
11  CGAGCGCGGAAACGCTCG (((..(((....))))))            -29.8
12  GCGCTGCGAAAGCGGTGC ((.(.((....)).).))            -31.8
13  GTCAATGGAAACATTGAC (((((((....)))))))            -39.8
14  CGTTACGGAAACGTCACG (((.(((....))).)))            -23.6
15  GCGGGGACGAAAGTCCGC (((..(((....))))))            -13.2
16  GTAAACGGAAACGTTTGC (.(((((....))))).)            -26.1
17  GCGGTGCGAAAGCAAAGC ((..(((....)))..))            -32.1
18  GTTACGGGAAACTGTAAC (((((.(....).)))))            -32.7
19  GCCGTTGGAAACAACAGC ((.((((....)))).))            -18.7
